System: MDA-MB-468
Assay: cells
Details: Homo sapiens, MDA-MB-468, 24 h
Description: Antiproliferative activity against human MDA-MB-468 cells assessed as reduction in cell viability incubated for 24 hrs by MTT assay
MEASUREMENT_NAME: IC50 (µM)
Number only, in µM; omit the unit.

Known IC50 results, listed for orientation:
- SMILES_STRUCTURE: "C/C(=N\\NC(=O)c1cccc(F)c1)c1ccc(C(=O)Nc2nc3ccccc3[nH]2)cc1"
  MEASUREMENT_UNIT: "µM"
  IC50: 6.06
- SMILES_STRUCTURE: "C/C(=N\\NC(=O)c1ccc(C)c(F)c1)c1ccc(C(=O)Nc2cc(N3CCOCC3)ccn2)cc1"
  MEASUREMENT_UNIT: "µM"
  IC50: 12.1

Q: So what does the record say about IC50 for `C/C(=N\NC(=O)c1cccc(I)c1)c1ccc(N)cc1` ?
Ans: 8.3

Q: Quick one: IC50 for `C/C(=N\NC(=O)c1ccc(C)c(Br)c1)c1ccc(O)cc1` ?
Ans: 8.46

Q: Quick one: IC50 of `C/C(=N\NC(=O)c1cccc(I)c1)c1ccncc1` ?
Ans: 12.1

Q: Record request: IC50 value, item `C/C(=N\NC(=O)c1cccc(Br)c1)c1ccc(C(=O)NN2CCOCC2)cc1`
Ans: 8.17

====

Lab note: log10 of IC50 readings collected with Serine/threonine-protein kinase mTOR (Homo sapiens) for the following compounds.
Friendly reminder: values = log10 of IC50, unit µM.

The cases that follow already have their log10 of IC50 on record.
- SMILES_STRUCTURE: "C/C(=N\\NC(=O)c1cccc(Br)c1)c1ccc(C(=O)Nc2cc(N3CCOCC3)ccn2)cc1"
  log10 of IC50: 0.39
- SMILES_STRUCTURE: "Cc1ccc(C(=O)Nc2cc3ccccc3cn2)cc1Br"
  log10 of IC50: 1.18
- SMILES_STRUCTURE: "O=C(NCc1cc(C(F)(F)F)cc(C(F)(F)F)c1)Nc1cccc(F)c1"
  log10 of IC50: 1.25
- SMILES_STRUCTURE: "C/C(=N\\NC(=O)c1cccc(F)c1)c1ccc(O)cc1O"
  log10 of IC50: 0.63
- SMILES_STRUCTURE: "C/C(=N\\NC(=O)c1ccc(C)c(F)c1)c1ccc(C(=O)Nc2cc(N3CCOCC3)ccn2)cc1"
  log10 of IC50: 0.58

Q: // lookup log10 of IC50 | system=Serine/threonine-protein kinase mTOR (Homo sapiens) | key= `O=C(NCc1cccc(Br)c1)Nc1ccc(C(F)(F)F)cc1`
Ans: 1.20

Q: Give Serine/threonine-protein kinase mTOR (Homo sapiens) log10 of IC50 for `O=C(Nc1ccc(C(F)(F)F)cc1)Nc1cccc(F)c1`
Ans: 1.10

Q: Form field - read-out: log10 of IC50; system: Serine/threonine-protein kinase mTOR (Homo sapiens); submitted item: `O=C(Nc1nc2ccccc2[nH]1)c1ccc(OC(F)(F)F)cc1`
Ans: 0.60

====

IC50: recorded values
Test system: A549
Experiment: cells
Details: Homo sapiens, A549, 24 h
Description: Antiproliferative activity against human A549 cells assessed as reduction in cell viability incubated for 24 hrs by MTT assay
Returns: string containing the numeric result and its unit.

- COMPOUND: "Cc1ccc(C(=O)Nc2ccc3ccccc3n2)cc1Br"
  IC50: "31.6 µM"
- COMPOUND: "CC(NC(=O)Nc1cccc(F)c1)c1ccccc1 (stereo unspecified)"
  IC50: "33 µM"
- COMPOUND: "O=C(Nc1nc2ccccc2[nH]1)c1ccc(OC(F)(F)F)cc1"
  IC50: "27.5 µM"

Q: Find the measured IC50: item `C/C(=N\NC(=O)c1ccc(C)c(Br)c1)c1ccncc1` , target or system A549.
Ans: 12.4 µM

Q: Any idea what IC50 came out for `C/C(=N\NC(=O)c1ccc(C)c(F)c1)c1ccc(C(=O)Nc2cc(N3CCOCC3)ccn2)cc1` on A549?
Ans: 13.9 µM

Q: Checklist item: IC50 tested on A549, entry `C/C(=N\NC(=O)c1cccc(F)c1)c1ccc(O)cc1O` , value?
Ans: 15.4 µM

Q: Recorded IC50 for `C/C(=N\NC(=O)c1cccc(Br)c1)c1ccc(C(=O)Nc2cc[nH]n2)cc1` with A549, please?
Ans: 10.5 µM

Q: Form: Entry = `O=C(Nc1cccc(F)c1)Nc1nc2ccccc2[nH]1` | System = A549 | IC50 = ____
Ans: 19.8 µM

Q: Fill in the recorded IC50 for this compound, with A549 as test system: CC(NC(=O)Nc1cccc(Cl)c1)c1ccccc1 (stereo unspecified)
Ans: 24.8 µM

Q: // lookup IC50 | system=A549 | key= `Cc1ccc(C(=O)NCc2ccc(O)cc2)cc1Br`
Ans: 33.8 µM

Q: I'm curious: which IC50 was measured for `O=C(NCc1ccc(O)cc1)Nc1cccc(Cl)c1` tested on A549?
Ans: 31.2 µM

Q: Field: IC50 (A549). Entry: `O=C(Nc1ccc(C(F)(F)F)cc1)Nc1nc2ccccc2[nH]1`
Ans: 23.5 µM

Q: Short answer please: IC50, A549, entry `CO[C@H]1C[C@@H]2CC[C@@H](C)[C@@](O)(O2)C(=O)C(=O)N2CCCC[C@H]2C(=O)O[C@H]([C@H](C)C[C@@H]2CC[C@@H](OC(=O)C(C)(CO)CO)[C@H](OC)C2)CC(=O)[C@H](C)/C=C(\C)[C@@H](O)[C@@H](OC)C(=O)[C@H](C)C[C@H](C)/C=C/C=C/C=C/1C`
Ans: 11.8 µM

Q: Param readout= IC50; system= A549; entry= `O=C(NCc1cc(C(F)(F)F)cc(C(F)(F)F)c1)Nc1cccc(F)c1` ; returns value.
Ans: 12.5 µM

Values from ChEMBL document CHEMBL4819087
